Values were extracted from patent US12509424B2.

Record form. Attribute: pIC50. Fill in for each entry.
Assayed Target: TEL-KIT fusion gene transfected cells (Ba/F3)
Sequence (P10721 26-976 limits assumed, change not shown): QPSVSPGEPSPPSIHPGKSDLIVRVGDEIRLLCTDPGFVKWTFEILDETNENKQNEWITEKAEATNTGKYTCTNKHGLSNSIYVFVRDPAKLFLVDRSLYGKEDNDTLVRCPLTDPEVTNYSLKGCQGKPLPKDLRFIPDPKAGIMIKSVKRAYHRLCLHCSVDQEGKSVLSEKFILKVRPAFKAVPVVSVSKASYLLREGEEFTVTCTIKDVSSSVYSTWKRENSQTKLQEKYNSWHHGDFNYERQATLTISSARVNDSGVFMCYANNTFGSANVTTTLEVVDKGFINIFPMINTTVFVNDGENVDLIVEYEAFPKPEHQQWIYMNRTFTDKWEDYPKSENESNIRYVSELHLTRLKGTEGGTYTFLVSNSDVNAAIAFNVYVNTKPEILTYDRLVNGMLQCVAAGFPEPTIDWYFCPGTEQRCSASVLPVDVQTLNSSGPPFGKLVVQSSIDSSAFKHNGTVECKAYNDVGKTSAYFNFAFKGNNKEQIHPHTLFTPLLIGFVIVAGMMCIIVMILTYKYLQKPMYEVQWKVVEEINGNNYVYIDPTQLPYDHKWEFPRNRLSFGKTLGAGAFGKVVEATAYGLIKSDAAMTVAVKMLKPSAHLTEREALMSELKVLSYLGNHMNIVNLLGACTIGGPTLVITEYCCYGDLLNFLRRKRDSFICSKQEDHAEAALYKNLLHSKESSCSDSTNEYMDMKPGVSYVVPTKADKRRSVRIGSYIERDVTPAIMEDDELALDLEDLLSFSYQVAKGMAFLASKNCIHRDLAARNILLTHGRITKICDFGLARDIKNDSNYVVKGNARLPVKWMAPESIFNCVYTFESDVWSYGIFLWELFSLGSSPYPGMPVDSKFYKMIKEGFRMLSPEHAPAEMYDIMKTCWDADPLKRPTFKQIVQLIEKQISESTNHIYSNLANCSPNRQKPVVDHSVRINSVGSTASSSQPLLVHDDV
Assay Notes: Suppression of proliferation of TEL-KIT fusion gene transfected Ba/F3 cells
Assay Context: read-out: KIT/BaF3 proliferation inhibition (IC50); TEL-KIT expressing Ba/F3 cells, 72 hours, final concentration 0.1 to 10,000 nM
Please report pIC50 as the negative decimal logarithm of the molar concentration, giving only the number.

Quick one: give measured pIC50 for "Cc1ccc(C(=O)N[C@H]2CCCC[C@@H]2O)cc1NCc1cncc(-c2cccs2)c1"
6.21

State its pIC50: "Cc1ccc(C(=O)N[C@H]2CCCC[C@@H]2O)cc1C#Cc1ccc(N)nc1"
6.57

Retrieve pIC50 measured for "Cc1ccc(C(=O)N[C@H]2CCCC[C@@H]2O)cc1C(=O)Nc1cncc(-c2ccccc2)c1" and print it.
6.22

Please report the measured pIC50 for "Cc1ccc(C(=O)N[C@H]2CCCC[C@@H]2O)cc1C#Cc1cncc(-c2ccccc2F)n1"
6.48

Read off the recorded pIC50 for "Cc1ccc(C(=O)N[C@H]2CCCC[C@@H]2O)cc1NC(=O)c1cncc(-c2ccc(C3CC3)cc2)c1"
6.19

Quick one: give measured pIC50 for "Cc1ccc(C(=O)N[C@H]2CCCC[C@@H]2O)cc1NC(=O)c1cncc(NC2CC2)c1"
5.82

Identify the reported pIC50 for the following entry. "Cc1ccc(C(=O)N[C@H]2CCCC[C@@H]2O)cc1N[C@@H](C)c1cncc(-c2ccccn2)c1"
6.21

Name the recorded pIC50 of the molecule listed here: "Cc1ccc(C(=O)N[C@H]2CCCC[C@@H]2O)cc1N[C@@H](C)c1cncc(-c2ncccn2)c1"
5.22

###

Assayed Target: TEL-KIT fusion gene transfected cells (Ba/F3)
Assay Notes: Suppression of proliferation of TEL-KIT fusion gene transfected Ba/F3 cells
Assay Context: read-out: KIT/BaF3 proliferation inhibition (IC50); TEL-KIT expressing Ba/F3 cells, 72 hours, final concentration 0.1 to 10,000 nM
Reported Property: IC50 (nM)
Quick note: give the figure in nM, leave out the unit.

Please list IC50 recorded for the molecule "Cc1ccc(C(=O)N[C@H]2CCCC[C@@H]2O)cc1CNc1cncc(-c2cccnc2)c1"
730

Please look at this molecule and report its IC50: "Cc1ccc(C(=O)N[C@H]2CCCC[C@@H]2O)cc1C#Cc1cncc(C2CC2)c1"
300

Quickly give me recorded IC50 for "Cc1ccc(C(=O)N[C@H]2CCCC[C@@H]2O)cc1CNc1cncc(-c2ccccn2)c1"
170

For the molecule "C[C@H](Nc1cc(C(=O)N[C@H]2CCCC[C@@H]2O)ccc1Cl)c1cncc(-c2cccnc2)c1" , report IC50.
8300

Determine its reported IC50: "Cc1ccc(C(=O)N[C@@H]2CCCC[C@H]2O)cc1CNc1cncc(-c2ncccn2)c1"
670

# return recorded IC50 for entry "Cc1ccc(C(=O)N[C@H]2CCCC[C@@H]2O)cc1NC(=O)c1cnc(NC2(C)CCC2)s1"
1200

###

Assayed Target: TEL-KIT fusion gene transfected cells (Ba/F3)
Assay Notes: Suppression of proliferation of TEL-KIT fusion gene transfected Ba/F3 cells;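 also: viable cells quantified via formazan from tetrazolium reduction, inhibition scaled with 0.1% DMSO control as 0% and medium-only blank as 100%, IC50 from two-parameter logistic fit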
Assay Context: read-out: KIT/BaF3 proliferation inhibition (IC50); TEL-KIT expressing Ba/F3 cells, 72 hours, final concentration 0.1 to 10,000 nM
Reported Property: IC50 (nM)
Report the figure in nM without appending any unit label.

Tell us which IC50 value is on record for Cc1ccc(C(=O)N[C@H]2CCCC[C@@H]2O)cc1NCc1cnn2ccsc12 [Example 105]
920

Give the reported IC50 for this compound. Cc1c(F)cc(C(=O)N[C@H]2CCCC[C@@H]2O)cc1NC(=O)c1cncc(OCC2CC2)c1 [Example 46]
410

# return recorded IC50 for input Cc1ccc(C(=O)N[C@H]2CCCC[C@@H]2O)cc1NCc1cncc(-c2ncc(F)cn2)c1 [Example 107]
1200

Write down IC50 measured for item Cc1ccc(C(=O)N[C@H]2CCCC[C@@H]2O)cc1C#Cc1cncc(C2CC2)n1 [Example 68]
2000

# return recorded IC50 for entry Cc1ccc(C(=O)N[C@H]2CCCC[C@@H]2O)cc1C#Cc1cncc(-c2ncccn2)c1 [Example 62]
87

Fill in reported IC50 for this entry: Cc1ccc(NC(=O)N[C@@H]2CCCC[C@@H]2O)cc1CNc1cncc(-c2ncccn2)c1 [Example 162]
270

Return IC50 (reported value) for this compound: Cc1ccc(C(=O)N[C@H]2CCCC[C@@H]2O)cc1NC(=O)c1cncc(-c2ccc(F)cc2F)c1 [Example 31]
1000

Name the recorded IC50 of the item Cc1ccc(C(=O)N[C@H]2CCCC[C@@H]2O)cc1NC(=O)c1cncc(-c2ccc(C(F)(F)F)cc2)c1 [Example 21] in your answer.
2000

Give recorded IC50. Cc1c(F)cc(C(=O)N[C@H]2CCCC[C@@H]2O)cc1Nc1cccc(-c2cccnc2)n1 [Example 81]
3300

Give the value of IC50 reported for the following: Cc1ccc(C(=O)N[C@H]2CCCC[C@@H]2O)cc1CNc1cncc(-c2ncccn2)c1 [Example 147]
100

Provide IC50 value for the following compound: Cc1ccc(C(=O)N[C@H]2CCCC[C@@H]2O)cc1NC(=O)c1cnc(NCCC2CC2)s1 [Example 26]
460

# return recorded IC50 for entry Cc1ccc(C(=O)N[C@H]2CCCC[C@@H]2O)cc1NC(=O)c1cncc(-c2ccccc2Cl)c1 [Example 13]
790

Find the measured IC50 of Cc1ccc(C(=O)N[C@H]2CCCC[C@@H]2O)cc1NCc1cncc(-c2ccccc2)c1 [Example 92] and report it.
1400

Recall and state the measured IC50 for COc1ccc(-c2cncc(NCc3cccc(NC(=O)N[C@@H]4CCCC[C@@H]4O)c3)n2)cc1OC [Example 158] .
3000

Fill in reported IC50 for this entry: Cc1ccc(C(=O)N[C@H]2CCCC[C@@H]2O)cc1NC(=O)c1cncc(-c2ccccc2OC(F)(F)F)c1 [Example 35]
2200

Using the record for Cc1ccc(C(=O)N[C@H]2CCCC[C@@H]2O)cc1NC(=O)c1cncc(-c2c(F)cccc2F)c1 [Example 37] , state its measured IC50.
470

###

Please respond with reported pIC50 for every item in the list.
Assayed Target: UniProt P09619
Please note pIC50 is a logarithmic value: minus log10 of concentration in mol/L. Answer with that number alone.

Answer with the recorded pIC50 for the molecule listed here: O=C(N[C@H]1CCCC[C@@H]1O)c1ccc(F)c(/C=C(\F)c2cnc(NCC3CC3)nc2)c1 [Example 202]
7.11

For the molecule Cc1ccc(C(=O)N[C@H]2CCCC[C@@H]2O)cc1NCc1cnc2ccsc2c1 [Example 108] , report pIC50.
7.29

Give the value of pIC50 reported for the following: Cc1ccc(C(=O)N[C@H]2CCCC[C@@H]2O)cc1NC(=O)c1cncc(-c2cccc(F)c2F)c1 [Example 30]
7.36

Supply reported pIC50 belonging to this molecule: Cc1ccc(C(=O)N[C@H]2CCCC[C@@H]2O)cc1NCc1cncc(-c2ccsc2)c1 [Example 103]
7.30

Kindly indicate its recorded pIC50. Item: Cc1ccc(C(=O)N[C@@H](CO)[C@@H](O)c2ccccc2)cc1CNc1cncc(Br)c1 [Example 152]
7.30

Answer with the recorded pIC50 of Cc1ccc(C(=O)N[C@H]2CCCC[C@@H]2O)cc1C#Cc1cncc(-c2cnccn2)c1 [Example 63] only.
7.82

Specify reported pIC50 for the molecule shown: O=C(N[C@H]1CCCC[C@@H]1O)c1ccc(Cl)c(C#Cc2cncc(-c3ccccc3)c2)c1 [Example 58]
7.92

Give the reported value of pIC50 for this record: COC(=O)Nc1ccc(CNc2cc(C(=O)N[C@H]3CCCC[C@@H]3O)ccc2C)cn1 [Example 124]
7.66

###

For each entry below, report its pIC50 value.
Assayed Target: TEL-PDGFRβ fusion gene transfected cells (Ba/F3)
Sequence (P09619 33-1106 limits assumed, change not shown): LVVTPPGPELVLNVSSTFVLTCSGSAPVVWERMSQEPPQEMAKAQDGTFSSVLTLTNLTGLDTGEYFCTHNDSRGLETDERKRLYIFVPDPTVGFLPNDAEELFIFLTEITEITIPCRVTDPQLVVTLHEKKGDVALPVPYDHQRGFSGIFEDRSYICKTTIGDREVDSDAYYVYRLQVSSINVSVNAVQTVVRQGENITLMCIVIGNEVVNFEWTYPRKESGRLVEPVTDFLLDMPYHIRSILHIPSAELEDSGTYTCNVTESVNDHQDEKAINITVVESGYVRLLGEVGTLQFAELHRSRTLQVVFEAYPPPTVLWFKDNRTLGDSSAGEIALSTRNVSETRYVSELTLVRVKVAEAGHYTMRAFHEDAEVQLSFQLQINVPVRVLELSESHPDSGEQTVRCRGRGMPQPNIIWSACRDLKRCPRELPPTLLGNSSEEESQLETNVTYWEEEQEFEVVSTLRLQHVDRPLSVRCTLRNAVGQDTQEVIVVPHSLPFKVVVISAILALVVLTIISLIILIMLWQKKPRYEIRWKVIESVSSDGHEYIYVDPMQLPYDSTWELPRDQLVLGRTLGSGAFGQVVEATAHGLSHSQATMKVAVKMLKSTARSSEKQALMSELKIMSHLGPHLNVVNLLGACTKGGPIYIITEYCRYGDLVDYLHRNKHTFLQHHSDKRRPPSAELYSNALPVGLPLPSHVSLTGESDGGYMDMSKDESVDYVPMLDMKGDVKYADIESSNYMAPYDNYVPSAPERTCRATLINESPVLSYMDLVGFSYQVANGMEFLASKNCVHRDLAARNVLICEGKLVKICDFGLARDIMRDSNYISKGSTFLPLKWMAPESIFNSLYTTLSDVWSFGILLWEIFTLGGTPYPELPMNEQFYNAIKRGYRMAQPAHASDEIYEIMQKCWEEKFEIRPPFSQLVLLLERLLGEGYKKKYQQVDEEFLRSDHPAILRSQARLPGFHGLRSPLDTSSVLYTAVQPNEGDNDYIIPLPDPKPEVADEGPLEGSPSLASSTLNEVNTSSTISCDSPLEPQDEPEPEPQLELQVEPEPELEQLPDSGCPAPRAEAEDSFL
Assay Notes: Suppression of proliferation of TEL-PDGFRβ fusion gene transfected Ba/F3 cells
Assay Context: TEL-PDGFRβ expressing Ba/F3 cells, 72 hours, final concentration 0.1 to 10,000 nM; read-out: PDGFR β/BaF3 proliferation inhibition (IC50)
Conceptually, pIC50 converts a concentration in mol/L into minus its log10.

Lab note: record pIC50 of Cc1ccc(C(=O)N[C@H]2CCCC[C@@H]2O)cc1NC(=O)c1cnc(-c2ccccc2)o1 [Example 5] tested on TEL-PDGFRβ fusion gene transfected cells (Ba/F3).
8.24

Give pIC50; test system TEL-PDGFRβ fusion gene transfected cells (Ba/F3); molecule Cc1ccc(C(=O)N[C@H]2CCCC[C@@H]2O)cc1NC(=O)c1cncc(-c2cccc(F)c2F)c1 [Example 30]
7.66

For TEL-PDGFRβ fusion gene transfected cells (Ba/F3), give the measured pIC50 of the entry Cc1c(F)cc(C(=O)N[C@H]2CCCC[C@@H]2O)cc1NCc1cncc(-c2ncccn2)c1 [Example 106]
8.68

Give pIC50; test system TEL-PDGFRβ fusion gene transfected cells (Ba/F3); molecule Cc1ccc(C(=O)N[C@H]2CCCC[C@@H]2O)cc1NCc1cncc(-c2ccc(C(C)(C)N)cc2)c1 [Example 98]
7.40

Recall the reported pIC50 of COc1ccc(-c2cncc(NCc3cccc(NC(=O)N[C@@H]4CCCC[C@@H]4O)c3)n2)cc1OC [Example 158] when tested on TEL-PDGFRβ fusion gene transfected cells (Ba/F3).
7.39

GET pIC50 | system: TEL-PDGFRβ fusion gene transfected cells (Ba/F3) | item: Cc1ccc(C(=O)N[C@H]2CCCC[C@@H]2O)cc1C#Cc1cncc(Br)c1 [Example 61]
7.74

Report pIC50 under test system TEL-PDGFRβ fusion gene transfected cells (Ba/F3) for Cc1ccc(C(=O)N[C@H]2CCCC[C@@H]2O)cc1NCc1cnn2ccsc12 [Example 105] .
8.33

Report its pIC50 with TEL-PDGFRβ fusion gene transfected cells (Ba/F3) as the test system: Cc1ccc(C(=O)N[C@H]2CCCC[C@@H]2O)cc1C#Cc1cncc(C2CC2)n1 [Example 68]
7.80

Lab note: record pIC50 of Cc1cncc(C#Cc2cc(C(=O)N[C@H]3CCCC[C@@H]3O)ccc2C)c1 [Example 59] tested on TEL-PDGFRβ fusion gene transfected cells (Ba/F3).
7.57

Quote TEL-PDGFRβ fusion gene transfected cells (Ba/F3) pIC50 for entry Cc1ccc(C(=O)N[C@H]2CCCC[C@@H]2O)cc1NC(=O)c1cncc(-c2cccc(C(F)(F)F)c2)c1 [Example 22] .
7.23

# return pIC50 of Cc1ccc(C(=O)N[C@H]2CCCC[C@@H]2O)cc1NC(=O)c1cncc(-c2cc(F)cc(F)c2)c1 [Example 32] (system: TEL-PDGFRβ fusion gene transfected cells (Ba/F3))
7.77

Provide pIC50, system TEL-PDGFRβ fusion gene transfected cells (Ba/F3), entry Cc1ccc(C(=O)N[C@H]2CCCC[C@@H]2O)cc1NC(=O)c1cncc(-c2ccc(C3CC3)cc2)c1 [Example 43]
7.77

Under TEL-PDGFRβ fusion gene transfected cells (Ba/F3): report pIC50 of Cc1ccc(C(=O)N[C@H]2CCCC[C@@H]2O)cc1NCc1cncc(-c2ccc(N)cc2)c1 [Example 99] .
9.30

With TEL-PDGFRβ fusion gene transfected cells (Ba/F3) as the test system, provide measured pIC50 for this molecule: Cc1ccc(C(=O)N[C@@H]2CCCC[C@H]2O)cc1CNc1cncc(-c2ncccn2)c1 [Example 149]
7.24

Provide pIC50, tested on TEL-PDGFRβ fusion gene transfected cells (Ba/F3), for O=C(N[C@H]1CCCC[C@@H]1O)c1ccc(Cl)c(NCc2cncc(-c3ncccn3)c2)c1 [Example 104] .
8.47

Provide TEL-PDGFRβ fusion gene transfected cells (Ba/F3) pIC50 reading for Cc1ccc(C(=O)N[C@H]2CCCC[C@@H]2O)cc1NC(=O)c1cnc(NCC(C)(C)C)s1 [Example 41] .
7.46

Give pIC50; test system TEL-PDGFRβ fusion gene transfected cells (Ba/F3); molecule Cc1ccc(C(=O)N[C@H]2CCCC[C@@H]2O)cc1NC(=O)c1cncc(-c2ccc(C(F)(F)F)cc2)c1 [Example 21]
7.22

Fill in: pIC50 on TEL-PDGFRβ fusion gene transfected cells (Ba/F3), entry Cc1ccc(C(=O)N[C@H]2CCCC[C@@H]2O)cc1NCc1cncc(-c2cccs2)c1 [Example 102]
8.70

Quote pIC50 with test system TEL-PDGFRβ fusion gene transfected cells (Ba/F3) for Cc1c(F)cc(C(=O)N[C@H]2CCCC[C@@H]2O)cc1NC(=O)c1cncc(OCC2CC2)c1 [Example 46]
7.77

Give pIC50 for Cc1ccc(C(=O)N[C@H]2CCCC[C@@H]2O)cc1NCc1cncc(-c2cc(F)cc(F)c2)c1 [Example 100] tested on TEL-PDGFRβ fusion gene transfected cells (Ba/F3).
7.77

State pIC50 on TEL-PDGFRβ fusion gene transfected cells (Ba/F3). Entry: Cc1ccc(C(=O)N[C@H]2CCCC[C@@H]2O)cc1NCc1cnc(N)nc1 [Example 113]
9.70

Please report the measured pIC50 for Cc1ccc(C(=O)N[C@H]2CCCC[C@@H]2O)cc1C#Cc1cncc(-c2ccccn2)c1 [Example 66] tested on TEL-PDGFRβ fusion gene transfected cells (Ba/F3).
8.60
